Assay: growth inhibition of WT strain, primary screen, mitochondrial fusion inhibitor project, WT and mutant strains, chemical genetic (AID 1362)
Conditions: mitochondrial fusion phenotypic screen, mutant strain inhibition; at 10 µM
Among all 190,000 compounds or so, about 4,000 (2.1%) were called active. What follows is part of a selection rich in actives, with near analogues and random picks from the rest.
measure: inhibition

{"columns": ["molecule", "inhibition"],
 "data": [
  ["Cc1nc(C)c(C(=O)N(c2ccc(C)c(C)c2)C(C(=O)NCc2ccco2)c2ccccc2)s1 (configuration not stated)", "9.51%"]
]}

Exercise: // returns reported inhibition for input "COc1cccc(/C=C/C(=O)Nc2ccc3c(c2)OCCO3)c1"
Key: 5.63%

Exercise: // returns reported inhibition for input CN1CCNC(=O)C1CC(=O)NCCC1=CCCCC1 (configuration not stated)
Key: 9.2%
